Details: in ethanol, 323.65 K
Outcome Measure: solubility (mole fraction)

C=CC(=O)NC(C)(C)CC(C)=O ... 0.867

* * *

Settings: in acetone, 323.15 K
Outcome Measure: solubility (mole fraction)

C=CC(=O)NC(C)(C)CC(C)=O ... 0.839

* * *

Conditions: in methanol, 293.35 K
Outcome Measure: solubility (mole fraction)

C=CC(=O)NC(C)(C)CC(C)=O ... 0.422

* * *

Details: in ethyl formate, 308.15 K
Outcome Measure: solubility (mole fraction)

C=CC(=O)NC(C)(C)CC(C)=O ... 0.575

* * *

Details: in 2-butanone, 308.15 K
Outcome Measure: solubility (mole fraction)

C=CC(=O)NC(C)(C)CC(C)=O ... 0.623

Entry source: BigSolDB 2.1
